For each record, write down the corresponding glycan array binding signal (z-score).
- Tested Target: Neu5Ac(a2-3)Gal(b1-4)[Fuc(a1-3)]GlcNAc(b1-2)Man
- Assay Procedure: glycan array binding signal (z-score within array); higher = stronger binding
- Assay Setup: glycan notation: IUPAC condensed, linker removed
About 410 targets per protein were measured; listed, in parts, are those with the strongest signals and a random draw of the rest.
Numbers only.

Epf (Streptococcus pyogenes) (protein) GDHGPEFNGVMVVKAAEAEELPDDLMNFKGTWEVSADGSSGRFFSKGATDSYVFHLIPAKDVKKPGWREHNEVKDSYIKIDKQSIAARYKTSTTAPYSVAFKVNTKSLIKDHDYKITFEQGQIASGITVDYRIGSAFNKTTDDSFKISDESKYASNVKIEGEEQGFKQREQGDKTISFRTLKEGPMSLVLLSKVEKKPQGDLDVEFKNLKIIDVTNPSQLDKGVAYVGNKNVQLTLKSDDGRTNFEGDEISLFNSRGELLQTVTVTKDQQNPISITLSEDQAKSLKNKEKLKVSIKQKQSKKTSKDFFFEVGIDPKVEAKQKEKLLELDKVKKQIEDSINGDAWLPEKPVDLQGDHGLSAWSHPQFEK: -1.48

[in] // glycan array binding signal (z-score) lookup, key: Aap lectin (Staphylococcus epidermidis) (protein) VNLNYSSPFMSLLSMPADSSSNNTKNTIDIPPTTVKGRDNYDFYGRVDIESNPTDLNATNLTRYNYGQPPGTTTAGAVQFKNQVSFDKDFDFNIRVANNRQSNTTGADGWGFMFSKKDGDDFLKNGGILREKGTPSAAGFRIDTGYYNNDPLDKIQKQAGQGYRGYGTFVKNDSQGNTSKVGSGTPSTDFLNYADNTTNDLDGKFHGQKLNNVNLKYNASNQTFTATYAGKTWTATLSELGLSPTDSYNFLVTSS
[out] -0.708
